tested on: SW-620 colon; test: NCI tumour cell line growth inhibition, 48 h; in the data active means GI50 below about 0.43 µM; inactive means the rest
Classes used: active, inactive

molecule | target.or.test.system | label
C[C@]12CC[C@@H]3c4ccc(OC(=O)N(CCCl)CCCl)cc4CC[C@H]3[C@@H]1CC[C@@H]2O | SW-620 colon | inactive
Cc1cccc(/C=C/c2c(C(=O)/C=C/c3ccccc3)c(C)nc3ccccc23)c1 | SW-620 colon | inactive
CCCCCCCCNc1cc2c3c(c1)CCCN3CCC2 | SW-620 colon | inactive
C=C(CN1C(=O)CN(C)C1=O)c1ccc(C(=O)Nc2ccccc2N)cc1 | SW-620 colon | inactive
Oc1c(-c2nnc(-c3ccccc3Cl)o2)sc2nnc(-c3ccccc3)c(-c3ccccc3)c12 | SW-620 colon | inactive
CCOC(=O)N1CCN(/[N+]([O-])=N/Oc2ccc([N+](=O)[O-])cc2[N+](=O)[O-])CC1 | SW-620 colon | inactive
COc1ccc2[nH]cc(-c3ccc(-c4c[nH]c5ccc(OC)cc45)s3)c2c1 | SW-620 colon | inactive
Fc1ccc(C2CC(c3cccc(Nc4ccncc4)c3)=NN2c2ccc(Cl)cc2)cc1 (centres undefined) | SW-620 colon | inactive
COC12C=C/C(=C(/C(=O)OCc3cncnc3)C(=O)CCCCCCCCC3(OC)C=C/C(=C(/C(=O)OCc4cncnc4)C(=O)CCCCCCCC1)O3)O2 | SW-620 colon | active
O=c1[nH]c(=O)c2cn[nH]c2[nH]1 | SW-620 colon | inactive
CCOC(=O)c1c(C)nc2c(c1N)CC(=O)N2Cc1ccc(OC)cc1 | SW-620 colon | inactive
CCN1C(=O)N(CC)C2C1NN=c1s/c(=C\c3cccc(F)c3)c(=O)n12 (centres undefined) | SW-620 colon | active
CCOC(=O)/C(C=Nc1ccc(-c2nc3ccccc3[nH]2)cc1)=C(/C)O | SW-620 colon | inactive
CCCCON(OC(=O)c1ccc2ccccc2c1)C(=O)c1ccccc1 | SW-620 colon | inactive
